Measured values drawn from PubChem BioAssay AID623988 for this set.

- EXPERIMENTAL SYSTEM: Voltage-gated inwardly rectifying potassium channel KCNH2 (Homo sapiens)
- PROTOCOL NOTES: hERG channel inhibition by thallium flux, dose response, selectivity assay for GIRK activator project, cell-based, concentration-response (AID 623988)
- MEASUREMENT CONDITIONS: hERG-expressing HEK293 cells, thallium flux fluorescence
pIC50: −log10 of the molar value.
EXPERIMENTAL READOUT: pIC50

SMILES TEXT | EXPERIMENTAL READOUT | VAL
Cc1cc(NC(=O)Nc2ccc(F)c(F)c2)n(-c2ccccc2)n1 | pIC50 | 4.97
